Recorded values, source patent EP2236511A2.

Quick list: 5-HT2A % inhibition per entry.
# system_name: recombinant human 5-HT2A receptor (Homo sapiens)
# Construct: expressed in transfected cells; host or cells: CHO-K1
# Sequence (P28223 whole entry): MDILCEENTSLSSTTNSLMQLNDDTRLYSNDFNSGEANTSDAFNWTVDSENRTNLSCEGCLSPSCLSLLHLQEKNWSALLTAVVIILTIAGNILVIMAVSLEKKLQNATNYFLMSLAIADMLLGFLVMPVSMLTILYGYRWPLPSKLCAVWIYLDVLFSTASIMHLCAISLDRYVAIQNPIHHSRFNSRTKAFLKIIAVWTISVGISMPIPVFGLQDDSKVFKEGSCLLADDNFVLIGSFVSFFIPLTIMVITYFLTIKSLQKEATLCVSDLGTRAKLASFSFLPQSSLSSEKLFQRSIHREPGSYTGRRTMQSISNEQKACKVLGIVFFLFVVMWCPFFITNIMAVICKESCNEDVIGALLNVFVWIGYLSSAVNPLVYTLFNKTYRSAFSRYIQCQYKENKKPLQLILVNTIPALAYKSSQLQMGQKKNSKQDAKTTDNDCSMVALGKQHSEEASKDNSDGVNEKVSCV
# test_method_notes: Radioligand binding to serotonin receptor 5-HT2A ([3H] Ketanserin, CHO-K1 membranes)
# measurement_setup: 10 µM ligand
quantity: 5-HT2A % inhibition (%)

> print(dat)
                                   compound                               system.name  measured.value
1  CN1CCc2c(c3cc(F)ccc3n2CC(O)c2ccccc2)C1 (stereo not shown)  recombinant human 5-HT2A receptor (Homo sapiens)              97
2  Cc1ccc(CCn2c3c(c4cc(C)ccc42)CN(C)CC3)cc1  recombinant human 5-HT2A receptor (Homo sapiens)              98
3  Cc1ccc2c(c1)c1c(n2/C=C\c2ccccc2)CCN(C)C1  recombinant human 5-HT2A receptor (Homo sapiens)             100
4  Cc1ccc2c(c1)c1c(n2CC(O)c2ccccc2)CCN(C)C1 (stereo not shown)  recombinant human 5-HT2A receptor (Homo sapiens)              97
5      CN1CCc2c(c3cc(F)ccc3n2C#Cc2ccccc2)C1  recombinant human 5-HT2A receptor (Homo sapiens)              99
6    Cc1ccc2c(c1)c1c(n2CCc2ccccn2)CCCN(C)C1  recombinant human 5-HT2A receptor (Homo sapiens)              46
7    Cc1ccc2c(c1)c1c(n2C#Cc2ccccc2)CCN(C)C1  recombinant human 5-HT2A receptor (Homo sapiens)              99

----------
Quick list: inhibition at 10 µM per entry.
# system_name: adrenergic receptor α1B (Rattus norvegicus, UniProt P15823)
# Construct: membrane species from rat liver (rat of Wistar breed) are prepared; from tissue; host or cells: rat (Wistar) liver
# Sequence (P15823 whole entry): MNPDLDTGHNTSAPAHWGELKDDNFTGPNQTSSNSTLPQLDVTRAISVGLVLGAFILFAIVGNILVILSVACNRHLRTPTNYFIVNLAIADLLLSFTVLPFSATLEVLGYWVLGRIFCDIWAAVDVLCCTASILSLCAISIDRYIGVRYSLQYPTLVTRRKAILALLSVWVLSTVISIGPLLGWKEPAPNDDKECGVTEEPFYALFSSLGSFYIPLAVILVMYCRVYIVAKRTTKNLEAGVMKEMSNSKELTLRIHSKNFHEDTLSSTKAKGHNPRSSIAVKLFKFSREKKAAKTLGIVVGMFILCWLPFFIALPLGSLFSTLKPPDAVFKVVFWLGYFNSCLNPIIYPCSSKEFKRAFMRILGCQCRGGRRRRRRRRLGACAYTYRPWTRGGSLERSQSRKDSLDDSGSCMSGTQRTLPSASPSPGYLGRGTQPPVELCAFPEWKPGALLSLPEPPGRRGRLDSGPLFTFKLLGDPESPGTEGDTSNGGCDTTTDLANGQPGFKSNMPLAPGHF
# test_method_notes: Radioligand binding to adrenergic receptor α1B ([3H] Prazosin, rat liver membranes)
# measurement_setup: read-out: α-Adrenoceptor, % inhibition α1B
Where a name gives a salt, the structure may show the parent alone.
quantity: inhibition at 10 µM (%)

> print(dat)
                                   compound             quantity  measured.value
1  Cc1ccc2c(c1)[C@@H]1CN(C)CCC[C@@H]1N2CCc1cccnc1 (relative stereo) [1.6.1(1)·3HCl]  inhibition at 10 µM              94
2  Cc1ccc2c(c1)c1c(n2CCc2cccnc2)CCCN(C)C1 [1.2.2(3-2)·2HCl]  inhibition at 10 µM              75
3  Cc1ccc2c(c1)c1c(n2CCc2ccccc2)CCN(C)C1 [1.1.2(1-2)·HCl]  inhibition at 10 µM             101
4  CN1CCc2c(c3ccccc3n2Cc2ccccc2)C1.Cl [1.9(1)·HCl]  inhibition at 10 µM              70
5  Cc1ccc2c(c1)c1c(n2CCc2ccccn2)CCN(C)C1 [1.1.2(2-3)·2HCl]  inhibition at 10 µM              98
6  Cc1ccc2c(c1)[C@@H]1CN(C)CCC[C@@H]1N2CCc1ccc(C)nc1 (relative stereo) [1.6.1(2)·3HCl]  inhibition at 10 µM              93

----------
# system_name: recombinant human 5-HT1A (Homo sapiens)
# Construct: expressed in transfected cells; host or cells: CHO
# Sequence (P08908 whole entry): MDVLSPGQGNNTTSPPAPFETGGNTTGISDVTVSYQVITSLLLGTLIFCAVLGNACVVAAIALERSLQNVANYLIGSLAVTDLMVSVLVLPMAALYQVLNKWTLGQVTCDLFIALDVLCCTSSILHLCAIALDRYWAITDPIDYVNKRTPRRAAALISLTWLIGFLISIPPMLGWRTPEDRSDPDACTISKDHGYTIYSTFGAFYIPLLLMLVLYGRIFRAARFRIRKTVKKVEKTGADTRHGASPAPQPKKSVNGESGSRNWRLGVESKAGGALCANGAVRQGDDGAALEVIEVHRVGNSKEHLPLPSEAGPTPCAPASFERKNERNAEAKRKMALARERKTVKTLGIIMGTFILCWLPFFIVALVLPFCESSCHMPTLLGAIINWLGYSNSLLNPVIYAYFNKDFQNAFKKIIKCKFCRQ
# test_method_notes: Radioligand binding to serotonin receptor 5-HT1A ([3H] 8-OH-DPAT, CHO membranes)
# measurement_setup: 10 µM ligand
# label = True if 5-HT1A % inhibition >= 30% else False

> print(dat)
                                   compound                              system.name  category
1  Cc1ccc(CCn2c3c(c4cc(C)ccc42)CN(C)CC3)cc1  recombinant human 5-HT1A (Homo sapiens)      True
2  CN1CCc2c(c3cc(F)ccc3n2CC(O)c2ccccc2)C1 (stereo not drawn)  recombinant human 5-HT1A (Homo sapiens)     False
3    Cc1ccc2c(c1)c1c(n2C#Cc2ccccc2)CCN(C)C1  recombinant human 5-HT1A (Homo sapiens)      True
4    Cc1ccc2c(c1)c1c(n2CCc2ccccn2)CCCN(C)C1  recombinant human 5-HT1A (Homo sapiens)     False
5  Cc1ccc2c(c1)c1c(n2CC(O)c2ccccc2)CCN(C)C1 (stereo not drawn)  recombinant human 5-HT1A (Homo sapiens)     False

----------
# system_name: human 5-HT7 receptor (Homo sapiens, UniProt P34969)
# Construct: expressed in transfected cells; host or cells: CHO
# Sequence (P34969 whole entry): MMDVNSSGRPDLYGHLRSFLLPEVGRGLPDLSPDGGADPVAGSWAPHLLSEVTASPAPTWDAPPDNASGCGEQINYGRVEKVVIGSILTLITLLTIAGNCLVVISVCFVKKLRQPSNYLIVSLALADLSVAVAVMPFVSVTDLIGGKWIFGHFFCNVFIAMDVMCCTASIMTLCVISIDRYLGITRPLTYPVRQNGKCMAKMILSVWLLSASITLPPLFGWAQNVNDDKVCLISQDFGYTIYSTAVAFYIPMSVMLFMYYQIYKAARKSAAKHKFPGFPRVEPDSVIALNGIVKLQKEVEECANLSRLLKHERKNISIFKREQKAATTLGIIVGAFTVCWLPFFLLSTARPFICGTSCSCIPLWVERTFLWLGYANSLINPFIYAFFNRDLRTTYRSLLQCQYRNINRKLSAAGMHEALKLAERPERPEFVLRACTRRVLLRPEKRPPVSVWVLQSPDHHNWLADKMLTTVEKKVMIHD
# test_method_notes: Radioligand binding to serotonin receptor 5-HT7 ([3H] Lysergic acid diethylamide, CHO membranes)
# measurement_setup: 10 µM ligand
Quick list: 5-HT7 % inhibition per entry.
quantity: 5-HT7 % inhibition (%)

> print(dat)
                                   molecule  measured.value
1  Cc1ccc(CCn2c3c(c4cc(C)ccc42)CN(C)CC3)cc1              98
2    Cc1ccc2c(c1)c1c(n2C#Cc2ccccc2)CCN(C)C1              93
3      CN1CCc2c(c3cc(F)ccc3n2C#Cc2ccccc2)C1              59
4  CN1CCc2c(c3cc(F)ccc3n2CC(O)c2ccccc2)C1 (stereo not drawn)              84
5    Cc1ccc2c(c1)c1c(n2CCc2ccccn2)CCCN(C)C1              74
6  Cc1ccc2c(c1)c1c(n2CC(O)c2ccccc2)CCN(C)C1 (stereo not drawn)              96

----------
Quick list: inhibition at 10 µM per entry.
# system_name: adrenergic receptor α1A (Rattus norvegicus)
# Construct: membrane species from rat submaxillary glands (rat of Wistar breed) are prepared; from tissue; host or cells: rat (Wistar) submaxillary gland
# Sequence (P43140 1-466): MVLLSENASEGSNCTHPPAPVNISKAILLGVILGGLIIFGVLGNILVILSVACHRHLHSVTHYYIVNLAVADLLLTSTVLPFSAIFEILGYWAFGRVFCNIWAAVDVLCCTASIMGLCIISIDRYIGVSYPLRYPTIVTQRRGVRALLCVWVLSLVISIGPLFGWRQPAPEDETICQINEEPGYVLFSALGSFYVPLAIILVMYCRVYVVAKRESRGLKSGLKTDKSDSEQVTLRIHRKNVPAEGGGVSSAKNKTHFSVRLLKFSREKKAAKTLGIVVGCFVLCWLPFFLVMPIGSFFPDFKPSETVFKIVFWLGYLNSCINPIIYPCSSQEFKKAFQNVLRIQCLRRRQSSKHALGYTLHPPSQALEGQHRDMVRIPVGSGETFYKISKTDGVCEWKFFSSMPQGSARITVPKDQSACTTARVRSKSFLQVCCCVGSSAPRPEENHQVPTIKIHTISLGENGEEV
# test_method_notes: Radioligand binding to adrenergic receptor α1A ([3H] Prazosin, rat submaxillary gland membranes)
# measurement_setup: read-out: α-Adrenoceptor, % inhibition α1A
Where a name gives a salt, the structure may show the parent alone.
quantity: inhibition at 10 µM (%)

> print(dat)
                                   molecule                               system.name             quantity  measured.value
1  Cc1ccc2c(c1)c1c(n2CCc2cccnc2)CCCN(C)C1 [1.2.2(3-2)·2HCl]  adrenergic receptor α1A (Rattus norvegicus)  inhibition at 10 µM              61
2  Cc1ccc2c(c1)c1c(n2CCc2ccccn2)CCN(C)C1 [1.1.2(2-3)·2HCl]  adrenergic receptor α1A (Rattus norvegicus)  inhibition at 10 µM              81
3  Cc1ccc2c(c1)c1c(n2CCc2ccccc2)CCN(C)C1 [1.1.2(1-2)·HCl]  adrenergic receptor α1A (Rattus norvegicus)  inhibition at 10 µM              99
4  Cc1ccc2c(c1)[C@@H]1CN(C)CCC[C@@H]1N2CCc1cccnc1 (relative stereo) [1.6.1(1)·3HCl]  adrenergic receptor α1A (Rattus norvegicus)  inhibition at 10 µM              90
5  CN1CCc2c(c3ccccc3n2Cc2ccccc2)C1.Cl [1.9(1)·HCl]  adrenergic receptor α1A (Rattus norvegicus)  inhibition at 10 µM              70

----------
# system_name: human H2 receptor (Homo sapiens)
# Construct: expressed in transfected cells; host or cells: CHO-K1
# Sequence (P25021 whole entry): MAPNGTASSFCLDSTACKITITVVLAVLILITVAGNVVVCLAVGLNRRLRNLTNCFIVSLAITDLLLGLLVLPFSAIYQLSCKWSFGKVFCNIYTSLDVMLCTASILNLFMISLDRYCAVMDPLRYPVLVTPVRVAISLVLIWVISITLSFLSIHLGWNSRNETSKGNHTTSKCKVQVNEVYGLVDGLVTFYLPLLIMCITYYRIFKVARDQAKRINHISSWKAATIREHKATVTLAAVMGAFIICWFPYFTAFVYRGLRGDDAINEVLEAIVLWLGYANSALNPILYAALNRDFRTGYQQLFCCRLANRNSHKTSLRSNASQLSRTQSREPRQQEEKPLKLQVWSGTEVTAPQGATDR
# test_method_notes: Radioligand binding to histamine receptor H2 ([125I] Aminopotentidine, CHO-K1 membranes)
# measurement_setup: read-out: Histamine receptors, % inhibition H2
Where a name gives a salt, the structure may show the parent alone.
# label = Criterion met if inhibition at 10 µM >= 80% else Criterion not met

> print(dat)
                                   compound                       system.name           category
1  CN1CCc2c(c3ccccc3n2Cc2ccccc2)C1.Cl [1.9(1)·HCl]  human H2 receptor (Homo sapiens)      Criterion met
2  Cc1ccc2c(c1)c1c(n2CCc2ccccc2)CCN(C)C1 [1.1.2(1-2)·HCl]  human H2 receptor (Homo sapiens)      Criterion met
3  Cc1ccc2c(c1)[C@@H]1CN(C)CCC[C@@H]1N2CCc1ccc(C)nc1 (relative stereo) [1.6.1(2)·3HCl]  human H2 receptor (Homo sapiens)  Criterion not met
4  Cc1ccc2c(c1)[C@@H]1CN(C)CCC[C@@H]1N2CCc1cccnc1 (relative stereo) [1.6.1(1)·3HCl]  human H2 receptor (Homo sapiens)  Criterion not met
